Tested on: A16V.S108T mutant (mut) of DHFR from Plasmodium falciparum
protocol.summary: biochemical
details: resistance factor
Below: a set of entries, each annotated with reported Ki(mut)/Ki(wt).
No unit in the answer, only the number.

Sample answers from the record:
compound	target.desc	Ki(mut)/Ki(wt)
COc1cc(OC)cc(C2N=C(N)N=C(N)N2c2ccc(Cl)cc2)c1 (stereo not shown)	A16V.S108T mutant (mut) of DHFR from Plasmodium falciparum	2.6
NC1=NC(c2cccc(O)c2)N(c2ccc(Cl)cc2)C(N)=N1 (stereo not shown) [(Ia) R2=m-hydroxyphenyl]	A16V.S108T mutant (mut) of DHFR from Plasmodium falciparum	20.6

What measured Ki(mut)/Ki(wt) goes with COc1cc(C2N=C(N)N=C(N)N2c2cccc(Cl)c2)cc(OC)c1OC (stereo not shown) ?
1.0

Item: NC1=NC(c2cccc(Oc3cc(Cl)cc(Cl)c3)c2)N(c2cccc(Cl)c2)C(N)=N1 (stereo not shown)
2.6

Again, but for NC1=NC(c2cccc(Oc3ccc(Cl)c(Cl)c3)c2)N(c2cccc(Cl)c2)C(N)=N1 (stereo not shown)
4.1

Proceed to NC1=NC(c2cccc(O)c2)N(c2cccc(Cl)c2)C(N)=N1 (stereo not shown) [(Ib) R2=3-hydroxyphenyl]
0.7

Next compound up: COc1ccc(C2N=C(N)N=C(N)N2c2cccc(Cl)c2)cc1 (stereo not shown)
0.6

###

target.desc: A16V.S108T mutant (mut) of DHFR from Plasmodium falciparum (Plasmodium falciparum, UniProt A7UD81, A16V/S108T)
Construct: The Dihydrofolate Reductase Domain of Plasmodium falciparum Thymidylate Synthase-Dihydrofolate Reductase; made in house
Sequence (A7UD81 1-231 A16V/S108T): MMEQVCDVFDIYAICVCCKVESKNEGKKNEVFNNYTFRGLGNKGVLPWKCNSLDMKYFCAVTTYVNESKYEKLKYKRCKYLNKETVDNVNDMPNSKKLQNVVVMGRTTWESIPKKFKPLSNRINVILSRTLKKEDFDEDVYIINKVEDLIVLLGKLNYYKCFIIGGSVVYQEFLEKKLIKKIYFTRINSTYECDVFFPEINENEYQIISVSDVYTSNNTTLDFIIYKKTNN
protocol.summary: biochemical
# Lookup of reported log10 Ki keyed by entry
The common logarithm of Ki in nM is what is listed.

The following molecules have reported results that may help.
molecule	log10 Ki
NC1=NCN(c2ccc(OCc3ccccc3)cc2)C(N)=N1	1.46
NC1=NC(c2ccc(Oc3ccccc3)cc2)N(c2ccc(Cl)cc2)C(N)=N1 (centres unmarked)	0.58
CC(C)(C)c1ccc(Oc2cccc(C3N=C(N)N=C(N)N3c3ccc(Cl)cc3)c2)cc1 (centres unmarked)	1.00
NC1=NC(c2cccc(Oc3ccccc3)c2)N(c2ccc(OCc3ccccc3)cc2)C(N)=N1 (centres unmarked)	0.65
COc1ccc(Oc2cccc(C3N=C(N)N=C(N)N3c3ccc(Cl)c(Cl)c3)c2)cc1 (centres unmarked)	0.87

What measured log10 Ki goes with NC1=NC(c2cccc(Oc3ccc(Cl)cc3)c2)N(c2ccc(Cl)cc2)C(N)=N1 (centres unmarked) ?
0.88

Queued: CCCCOc1ccc(C2N=C(N)N=C(N)N2c2ccc(OCc3ccccc3)cc2)cc1 (centres unmarked)
0.82

Likewise for Cl.NC1=NCN(c2ccc(Cl)cc2)C(N)=N1 [(Ia) R2=H, hydrochloride] ?
2.81

###

Tested on: P. falciparum FCR3 (resistant strain containing the A16V.S108T DHFR mutant)
protocol.summary: In vitro inhibition of P. falciparum FCR3
Assay type: cell-based, Plasmodium falciparum
details: Plasmodium falciparum; in vitro, FCR3 strain; read-out: Pf-FCR3 ED50
IC50 values by entry
Report only the number, with the unit µg/mL understood.

Known results for compounds:
compound	unit	reported.value
NC1=NC(c2ccc(-c3ccccc3)cc2)N(c2ccc(Cl)cc2)C(N)=N1 (stereo not drawn) [(Ia) R2=4-biphenyl]	µg/mL	0.68
CC(C)(C)c1ccc(Oc2cccc(C3N=C(N)N=C(N)N3c3cccc(Cl)c3)c2)cc1 (stereo not drawn) [(Ib) R2=3-(4-t-butylphenoxy)phenyl]	µg/mL	0.47
NC1=NC(c2cccc(OCc3ccccc3)c2)N(c2cccc(Cl)c2)C(N)=N1 (stereo not drawn) [(Ib) R2=3-benzyloxyphenyl]	µg/mL	0.019
NC1=NC(c2cccc(OCc3ccccc3)c2)N(c2ccc(Cl)cc2)C(N)=N1 (stereo not drawn) [(Ia) R2=m-benzyloxyphenyl]	µg/mL	0.62
Cl.NC1=NCN(c2ccc(Cl)cc2)C(N)=N1 [(Ia) R2=H]	µg/mL	0.13

# input compound: NC1=NC(c2cccc(Oc3ccccc3)c2)N(c2cccc(Cl)c2)C(N)=N1 (stereo not drawn) [(Ib) R2=3-phenoxyphenyl] ; wanted: its IC50
0.0008

###

System: A16V.S108T mutant (mut) of DHFR from Plasmodium falciparum
protocol.summary: biochemical
details: resistance factor
measurement.kind: Ki(mut)/Ki(wt)
A bare number is all that is needed in reply.

molecule	Ki(mut)/Ki(wt)
NC1=NC(c2cccc(OCc3ccccc3)c2)N(c2cccc(Cl)c2)C(N)=N1 (centres unmarked)	1.4
CCCCOc1ccc(C2N=C(N)N=C(N)N2c2ccc(Cl)cc2)cc1 (centres unmarked)	5.0
CC(C)(C)c1ccc(Oc2cccc(C3N=C(N)N=C(N)N3c3cccc(Cl)c3)c2)cc1 (centres unmarked)	0.7
CCCCOc1ccc(C2N=C(N)N=C(N)N2c2ccc(OCc3ccccc3)cc2)cc1 (centres unmarked)	8.2
NC1=NC(c2cccc(Oc3ccccc3)c2)N(c2ccc(Cl)c(Cl)c2)C(N)=N1 (centres unmarked)	2.7
NC1=NC(c2ccc(O)cc2)N(c2cccc(Cl)c2)C(N)=N1 (centres unmarked) [(Ib) R2=4-hydroxyphenyl]	1.0

Entry under review: NC1=NC(c2ccc(Oc3ccccc3)cc2)N(c2cccc(Cl)c2)C(N)=N1 (centres unmarked) . Reported Ki(mut)/Ki(wt)?
3.9

# repeat for COc1ccc(C2N=C(N)N=C(N)N2c2cccc(Cl)c2)cc1OC (centres unmarked)
6.0

###

target.desc: wild-type (wt) DHFR from Plasmodium falciparum (Plasmodium falciparum, UniProt P13922, N108S/R59C)
Construct: The Dihydrofolate Reductase Domain of Plasmodium falciparum Thymidylate Synthase-Dihydrofolate Reductase; made in house
Sequence (P13922 10-228 R59C/N108S): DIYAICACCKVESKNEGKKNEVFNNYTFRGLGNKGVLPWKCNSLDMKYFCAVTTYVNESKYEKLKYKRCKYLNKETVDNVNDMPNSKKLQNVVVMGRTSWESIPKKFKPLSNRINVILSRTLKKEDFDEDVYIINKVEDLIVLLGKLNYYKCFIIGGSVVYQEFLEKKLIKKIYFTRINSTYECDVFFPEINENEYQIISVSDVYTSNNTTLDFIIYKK
protocol.summary: Inhibition of wild-type pfDHFR (spectrophotometric, Ki)
Assay type: biochemical
details: Ki(wt) nM
Mark Yes for Ki under 5 nM, No if at or over.

Example cases with answers are listed next.
molecule	class.name
NC1=NC(c2ccc(O)cc2)N(c2cccc(Cl)c2)C(N)=N1 (stereo not drawn) [(Ib) R2=4-hydroxyphenyl]	No
Cl.NC1=NCN(c2ccccc2)C(N)=N1 [R=H, X=H, hydrochloride]	No
COc1cc(C2N=C(N)N=C(N)N2c2cccc(Cl)c2)cc(OC)c1OC (stereo not drawn)	No
NC1=NC(c2cccc(O)c2)N(c2ccc(Cl)cc2)C(N)=N1 (stereo not drawn) [(Ia) R2=m-hydroxyphenyl]	No
NC1=NC(c2cccc(Oc3ccccc3)c2)N(c2ccc(Cl)c(Cl)c2)C(N)=N1 (stereo not drawn)	Yes

Is Ki of COc1ccc(C2N=C(N)N=C(N)N2c2ccc(Cl)cc2)cc1OC (stereo not drawn) strictly below 5 nM?
No

Repeat with NC1=NC(c2ccc(OCc3cc(F)cc(F)c3)cc2)N(c2cccc(Cl)c2)C(N)=N1 (stereo not drawn)
Yes

Same lookup for NC1=NC(c2ccc(-c3ccccc3)cc2)N(c2ccc(Cl)cc2)C(N)=N1 (stereo not drawn) , please.
Yes

Also need CCOc1ccc(C2N=C(N)N=C(N)N2c2ccc(Cl)cc2)cc1 (stereo not drawn) , thanks.
Yes

Would you mind doing NC1=NC(c2cccc(Oc3ccc(Cl)c(Cl)c3)c2)N(c2cccc(Cl)c2)C(N)=N1 (stereo not drawn) as well?
Yes

Queued: CCCCOc1ccc(C2N=C(N)N=C(N)N2c2ccc(Cl)cc2)cc1 (stereo not drawn)
Yes

Check NC1=NCN(c2ccc(Cl)c(Cl)c2)C(N)=N1 too.
No

Try the molecule NC1=NC(c2cccc(OCc3ccccc3)c2)N(c2cccc(Cl)c2)C(N)=N1 (stereo not drawn)
Yes

Then COc1cccc(C2N=C(N)N=C(N)N2c2cccc(Cl)c2)c1 (stereo not drawn) ?
No

Note, next up: COc1ccc(Oc2cccc(C3N=C(N)N=C(N)N3c3ccc(Cl)c(Cl)c3)c2)cc1 (stereo not drawn)
Yes

Can you check N#Cc1ccc(C2N=C(N)N=C(N)N2c2ccc(Cl)cc2)cc1 (stereo not drawn) next?
No

Another molecule to check: NC1=NC(c2cccc(OCc3ccccc3)c2)N(c2ccc(Cl)cc2)C(N)=N1 (stereo not drawn)
Yes

What about this molecule? NC1=NCN(c2cccc(Cc3ccccc3)c2)C(N)=N1
No

###

target.desc: human DHFR
protocol.summary: Inhibition of human DHFR (I50-derived Ki);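 further: recombinant human DHFR expressed in E. coli and purified by methotrexate affinity chromatography, enzyme activity followed spectrophotometrically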
Assay type: biochemical
List of Ki (human)/Ki (P. falc. wt) values.
Respond using a number only.

# example entries with known answers
compound	Ki (human)/Ki (P. falc. wt)
NC1=NC(c2cccc(OCc3ccccc3)c2)N(c2cccc(COc3cc(Cl)c(Cl)cc3Cl)c2)C(N)=N1 (stereo not shown) [(Id1) R2=3-benzyloxyphenyl]	2.1
COc1ccc(C2N=C(N)N=C(N)N2c2ccc(Cl)cc2)cc1 (stereo not shown) [(Ia) R2=p-methoxyphenyl]	485
NC1=NC(c2cccc(O)c2)N(c2ccc(Cl)cc2)C(N)=N1 (stereo not shown) [(Ia) R2=m-hydroxyphenyl]	280

For the compound CCCCOc1ccc(C2N=C(N)N=C(N)N2c2ccc(OCc3ccccc3)cc2)cc1 (stereo not shown) , what Ki (human)/Ki (P. falc. wt) is on record?
253

###

target.desc: wild-type (wt) DHFR from Plasmodium falciparum (Plasmodium falciparum, UniProt P13922, N108S/R59C)
Construct: The Dihydrofolate Reductase Domain of Plasmodium falciparum Thymidylate Synthase-Dihydrofolate Reductase; made in house
protocol.summary: Inhibition of wild-type pfDHFR (spectrophotometric, Ki);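 further: Affinity-purified enzyme, initial reaction rates measured across a range of inhibitor concentrations, Ki obtained by nonlinear least-squares fitting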
Assay type: biochemical
details: read-out: Ki(wt)
Field 'label' (enum: label 1 / label 0). Set to label 1 when Ki is strictly under 6 nM; else label 0.

compound	class.name
NC1=NC(c2cccc(OCc3ccccc3)c2)N(c2cccc(COc3cc(Cl)c(Cl)cc3Cl)c2)C(N)=N1 (stereo not drawn)	label 0

API: query returns whether the compound falls strictly under 6 nM in Ki. Query: NC1=NC(c2cccc(OCc3ccccc3)c2)N(c2ccc(OCc3ccccc3)cc2)C(N)=N1 (stereo not drawn)
label 1

Here is the next compound: NC1=NC(c2cccc(Oc3ccccc3)c2)N(c2cccc(/C=C/c3ccc(Cl)cc3Cl)c2)C(N)=N1 (stereo not drawn)
label 0
